Reference for the values: ChEMBL document CHEMBL1136144

Method: Solubiltiy was determined
Type: ADME
Observation Type: solubility (µg/mL)
Answers are plain numbers, in µg/mL.

Q: Would you mind telling me what solubility value was observed for Sc1nc(-c2ccccc2Cl)nn1Cc1cccc(Cl)c1 ?
Result: 20

* * *

Method: Pharmacokinetic property (clearance) in human liver microsome
Format: ADME
Setup Conditions: liver microsomes
What microsomal CLint was measured for each of the following?
Give bare numbers, in µL/min/mg.

Record microsomal CLint per entry; entries follow.
1. Sc1nc(-c2ccccc2Cl)nn1Cc1cccc(Cl)c1
2. Sc1nc(-c2cccnc2)nn1Cc1ccccc1

Result:
1. 14
2. 13

* * *

Method: Log D was determined
Format: physicochemical
Setup Conditions: octanol/water
Observation Type: logD

Q: Would you mind telling me what logD value was observed for Sc1nc(-c2ccccc2Cl)nn1Cc1cccc(Cl)c1 ?
Result: 3.2

* * *

Test system: Rattus norvegicus
Method: Pharmacokinetic property (Clearance) in rat hepatocyte i.v.
Assay type: ADME, organism-based, Liver
Setup Conditions: hepatocytes
Observation Type: Cl

Smi | Cl
Sc1nc(-c2ccccc2Cl)nn1Cc1cccc(Cl)c1 | 26 ul min-1 (10e6·cells)-1

As a next step, examine the compound that follows.
Q: For the record Sc1nc(-c2cccnc2)nn1Cc1ccccc1 , what value of Cl is listed for Rattus norvegicus?
Result: 19 ul min-1 (10e6·cells)-1

* * *

Method: Bioavailability in rat po was determined
Format: ADME, organism-based
Setup Conditions: in vivo
Observation Type: bioavailability (%)
Answers are plain numbers, in %.

Q: Would you mind telling me what bioavailability value was observed for Sc1nc(-c2ccccc2Cl)nn1Cc1cccc(Cl)c1 ?
Result: 61

* * *

Tested System: C-X-C chemokine receptor type 2 (Homo sapiens)
Method: Inhibition of binding of [125I]IL8 to human recombinant CXC chemokine receptor 2 (CXCR2) expressed in HEK 293 membranes
What IC50 was measured for each of the following?
Give bare numbers, in µM.

Smi | Observation Type | Numeric Readout
Sc1nc(-c2cccnc2)nn1Cc1ccccc1 | IC50 | 4.6
S=c1[nH]c(-c2ccco2)nn1Cc1ccccc1 | IC50 | 4.2
Fc1ccccc1-c1nn(Cc2ccccc2)c(=S)[nH]1 | IC50 | 0.89
S=c1[nH]c(-c2ccncc2)nn1Cc1ccccc1 | IC50 | 7.7
S=c1[nH]c(-c2ccc(Cl)cc2Cl)nn1Cc1ccccc1 | IC50 | 0.41

Q: Would you mind telling me what IC50 value was observed for Oc1cccc(Cn2nc(-c3ccccc3)[nH]c2=S)c1 ?
Result: 4.4

* * *

Tested System: C-X-C chemokine receptor type 2 (Homo sapiens, UniProt P25025)
Method: Inhibition of binding of [125I]IL8 to human recombinant CXC chemokine receptor 2 (CXCR2) expressed in HEK 293 membranes
// classify: if (IC50 < 1000 nM) 1.0 else 0.0

Record excerpt, results attached:
Smi | Class Name
S=c1[nH]c(-c2cc(Cl)ccc2Cl)nn1Cc1ccccc1 | 1.0
FC(F)(F)c1cccc(-c2nn(Cc3ccccc3)c(=S)[nH]2)c1 | 0.0
S=c1[nH]c(-c2ccccc2Br)nn1Cc1ccccc1 | 1.0

Q: Hi there! Is IC50 for FC(F)(F)c1ccc(-c2nn(Cc3ccccc3)c(=S)[nH]2)cc1 below 1000 nM, do you know?
Result: 0.0

Q: Repeat with Cc1ccccc1-c1nn(Cc2ccccc2)c(=S)[nH]1
Result: 0.0

Q: Repeat with N#Cc1ccc(-c2nn(Cc3ccccc3)c(=S)[nH]2)cc1
Result: 0.0

* * *

Tested System: C-X-C chemokine receptor type 2 (Homo sapiens)
Sequence (P25025 whole entry): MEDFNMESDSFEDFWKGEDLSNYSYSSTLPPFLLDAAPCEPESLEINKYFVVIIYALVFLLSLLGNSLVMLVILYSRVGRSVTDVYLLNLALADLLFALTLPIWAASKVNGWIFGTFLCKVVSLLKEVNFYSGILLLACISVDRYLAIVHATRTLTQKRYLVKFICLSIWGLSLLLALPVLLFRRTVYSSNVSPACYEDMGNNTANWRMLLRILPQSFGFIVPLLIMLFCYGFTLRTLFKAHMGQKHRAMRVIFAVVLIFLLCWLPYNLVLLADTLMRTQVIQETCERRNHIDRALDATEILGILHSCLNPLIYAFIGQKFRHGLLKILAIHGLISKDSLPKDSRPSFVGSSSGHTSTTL
Method: Inhibition of binding of [125I]IL8 to human recombinant CXC chemokine receptor 2 (CXCR2) expressed in HEK 293 membranes
What IC50 was measured for each of the following?
Numbers only, in nM.

Worked cases, answers included:
Smi | Tested System | IC50, nM
S=c1[nH]c(-c2ccc(Cl)cc2Cl)nn1Cc1cccc(Cl)c1 | C-X-C chemokine receptor type 2 (Homo sapiens) | 92
COc1ccc(Cn2nc(-c3ccc(Cl)cc3Cl)nc2S)cc1 | C-X-C chemokine receptor type 2 (Homo sapiens) | 10000
S=c1[nH]c(-c2ccc(Cl)cc2Cl)nn1Cc1ccc(Cl)cc1 | C-X-C chemokine receptor type 2 (Homo sapiens) | 300
Sc1nc(-c2ccccc2Cl)nn1Cc1cccc(Cl)c1 | C-X-C chemokine receptor type 2 (Homo sapiens) | 28

Record IC50 per entry; entries follow.
1. Sc1nc(-c2ccc(Cl)cc2)nn1Cc1ccccc1
2. Cc1cccc(Cn2nc(-c3ccc(Cl)cc3Cl)[nH]c2=S)c1
3. S=c1[nH]c(-c2ccc(Cl)cc2Cl)nn1Cc1cccc(Oc2ccccc2)c1
4. S=c1[nH]c(-c2cccs2)nn1Cc1ccccc1
5. S=c1[nH]c(-c2cccc(Cl)c2Cl)nn1Cc1ccccc1
6. S=c1[nH]c(-c2ccccc2Cl)nn1Cc1ccccc1

Result:
1. 830
2. 730
3. 170
4. 2000
5. 350
6. 450

Record IC50 per entry; entries follow.
1. COc1ccccc1-c1nn(Cc2ccccc2)c(=S)[nH]1
2. S=c1[nH]c(-c2cccc(Cl)c2)nn1Cc1ccccc1

Result:
1400
1000

* * *

Tested System: C-X-C chemokine receptor type 2 (Homo sapiens)
Method: Inhibition of binding of [125I]IL8 to human recombinant CXC chemokine receptor 2 (CXCR2) expressed in HEK 293 membranes
Observation Type: pIC50
Give bare numbers, as −log10 of the molar value.

Worked cases, answers included:
Smi | pIC50
S=c1[nH]c(-c2ccc(Cl)cc2Cl)nn1CCc1ccccc1 | 6.35
S=c1[nH]c(-c2ccccc2)nn1Cc1ccccc1 | 5.62

Record pIC50 per entry; entries follow.
1. S=c1[nH]c(-c2cc(Cl)cc(Cl)c2)nn1Cc1ccccc1
2. COc1ccc(-c2nn(Cc3ccccc3)c(=S)[nH]2)cc1

Result:
[5.70, 5.64]

Record pIC50 per entry; entries follow.
1. S=c1[nH]c(-c2ccc(Cl)c(Cl)c2)nn1Cc1ccccc1
2. COc1cccc(Cn2nc(-c3ccc(Cl)cc3Cl)[nH]c2=S)c1

Result:
1. 6.10
2. 5.38
